inhibition reference
- assayed target: Dopamine beta-hydroxylase (Bos taurus) (UniProt P15101)
- Sequence (P15101 whole entry): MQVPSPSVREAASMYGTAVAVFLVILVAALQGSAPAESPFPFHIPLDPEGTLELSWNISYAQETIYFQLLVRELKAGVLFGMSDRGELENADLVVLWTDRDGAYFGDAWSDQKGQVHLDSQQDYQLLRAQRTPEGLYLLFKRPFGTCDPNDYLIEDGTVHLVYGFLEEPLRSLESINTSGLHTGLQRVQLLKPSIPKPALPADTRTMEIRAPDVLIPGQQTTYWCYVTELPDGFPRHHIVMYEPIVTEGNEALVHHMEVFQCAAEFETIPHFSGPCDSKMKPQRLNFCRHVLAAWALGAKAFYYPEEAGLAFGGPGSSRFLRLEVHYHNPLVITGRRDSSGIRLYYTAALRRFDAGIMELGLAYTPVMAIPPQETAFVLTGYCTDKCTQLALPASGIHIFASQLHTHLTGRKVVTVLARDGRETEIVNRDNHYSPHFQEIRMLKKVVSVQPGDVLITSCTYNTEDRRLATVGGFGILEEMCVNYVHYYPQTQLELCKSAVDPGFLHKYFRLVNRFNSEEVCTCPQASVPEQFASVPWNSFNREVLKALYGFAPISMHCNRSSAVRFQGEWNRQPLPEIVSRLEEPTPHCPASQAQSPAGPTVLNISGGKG
- assay procedure: Percent inhibition against bovine dopamine beta-hydroxylase (DBH) at 10e-5 M concentration

Record "S=c1ncccn1Cc1ccccc1" : what is its inhibition with Dopamine beta-hydroxylase (Bos taurus) (UniProt P15101)?
5%

----------
- assayed target: Dopamine beta-hydroxylase (Bos taurus)
- assay procedure: Percent inhibition against bovine dopamine beta-hydroxylase (DBH) at 10e-4 M concentration
Listing: inhibition of selected molecules
Output spec: scalar in %, unitless text.

>  <chem smiles>
O/N=C/c1nccn1Cc1ccccc1

>  <assayed target>
Dopamine beta-hydroxylase (Bos taurus)

>  <value measured>
10

$$$$
>  <chem smiles>
Nc1nccn1Cc1ccc(O)cc1

>  <assayed target>
Dopamine beta-hydroxylase (Bos taurus)

>  <value measured>
4

$$$$
>  <chem smiles>
O=C(O)Cc1nccn1Cc1ccccc1

>  <assayed target>
Dopamine beta-hydroxylase (Bos taurus)

>  <value measured>
0

$$$$

Given "OCc1nccn1Cc1ccccc1" , state its recorded inhibition.
0

Can you look up the measured inhibition of "O=C(O)Cc1nccn1Cc1ccc(O)cc1" for me?
0

What does the data say about its inhibition? Entry: "Oc1ccc(Cn2ccnc2)cc1"
17

----------
Reported IC50 values follow for various compounds
- assayed target: Dopamine beta-hydroxylase (Bos taurus, UniProt P15101)
- Sequence (P15101 whole entry): as above
Report only the number, with the unit µM understood.

Known results for compounds:
>  <chem smiles>
Fc1cc(F)cc(Cc2cccnc2S)c1

>  <assayed target>
Dopamine beta-hydroxylase (Bos taurus, UniProt P15101)

>  <IC50 [µM]>
13.4

$$$$
>  <chem smiles>
Fc1cccc(CN2CCNC2=S)c1

>  <assayed target>
Dopamine beta-hydroxylase (Bos taurus, UniProt P15101)

>  <IC50 [µM]>
3.7

$$$$
>  <chem smiles>
CSc1nccn1CCCc1ccc(O)cc1

>  <assayed target>
Dopamine beta-hydroxylase (Bos taurus, UniProt P15101)

>  <IC50 [µM]>
79

$$$$
>  <chem smiles>
O=C(O)c1nccn1Cc1ccccc1

>  <assayed target>
Dopamine beta-hydroxylase (Bos taurus, UniProt P15101)

>  <IC50 [µM]>
57

$$$$
>  <chem smiles>
Oc1c(F)cc(Cn2cnnc2S)cc1F

>  <assayed target>
Dopamine beta-hydroxylase (Bos taurus, UniProt P15101)

>  <IC50 [µM]>
0.035

$$$$
>  <chem smiles>
Sc1nnnn1Cc1ccccc1

>  <assayed target>
Dopamine beta-hydroxylase (Bos taurus, UniProt P15101)

>  <IC50 [µM]>
16

$$$$

What measured IC50 is associated with "Sc1ncnn1Cc1ccccc1" on Dopamine beta-hydroxylase (Bos taurus, UniProt P15101)?
75

Quick check: IC50 on Dopamine beta-hydroxylase (Bos taurus, UniProt P15101), item "Fc1cc(F)cc(CN2CCN=C2S)c1" ?
1.4

----------
- assayed target: Dopamine beta-hydroxylase (Bos taurus)
- assay procedure: Percent inhibition against bovine dopamine beta-hydroxylase (DBH) at 10e-5 M concentration
Listing of entries alongside the reported inhibition.
Write the number in % without appending the unit.

For orientation, consider the following solved cases.
>  <chem smiles>
Sc1cnnn1Cc1ccccc1

>  <units symbol>
%

>  <inhibition>
0

$$$$
>  <chem smiles>
Fc1cccc(Cc2cccnc2S)c1

>  <units symbol>
%

>  <inhibition>
34

$$$$
>  <chem smiles>
Fc1cccc(Cn2cccnc2=S)c1

>  <units symbol>
%

>  <inhibition>
15

$$$$
>  <chem smiles>
S=C1NCCN1Cc1ccccc1

>  <units symbol>
%

>  <inhibition>
5

$$$$

What value of measured inhibition is listed for "Sc1ncccc1Cc1ccccc1" ?
26
